Where these numbers come from: patent EP4692096A1

Provide the recorded Cmax for the entries that follow.
# Measurement Protocol: Pharmacokinetic experiment in rats
# Type: in vivo, Male SD rats
# Assay Setup: male, SD; rat plasma, single oral gavage 10 mg/kg
Write it as a number; the unit ng/mL goes unstated.

Look at this compound and give its reported Cmax. CNc1cc2nc3c(cnn13)C(=O)N[C@H](C)COCc1ccc(OC)c(c1)N2 [control compound B, reference compound]
192

Name the recorded Cmax for CNc1cc2nc3c(cnn13)C(=O)OC(C)COCc1ccc(OC)c(c1)N2 (stereo not drawn) .
2460

# input compound: CNc1cc2nn3c(cnc13)C(=O)N[C@@H]1CCC[C@H]1OCc1cc(c3nnn(C)c3c1)N2 [control compound A, reference compound] ; wanted: its Cmax
126

###

Answer each item with its documented MRT.
# Measurement Protocol: Pharmacokinetic experiment in rats
# Assay type: in vivo, Male SD rats
# Assay Setup: male, SD; rat plasma, single oral gavage 10 mg/kg

// query MRT value for entry CNc1cc2nc3c(cnn13)C(=O)N[C@H](C)COCc1ccc(OC)c(c1)N2 [control compound B, reference compound]
1.63 h

MRT for CNc1cc2nc3c(cnn13)C(=O)OC(C)COCc1ccc(OC)c(c1)N2 (stereo not drawn) ?
1.97 h

Consider the compound CNc1cc2nn3c(cnc13)C(=O)N[C@@H]1CCC[C@H]1OCc1cc(c3nnn(C)c3c1)N2 [control compound A, reference compound] and give its measured MRT.
3.16 h

###

# Measurement Protocol: Pharmacokinetic experiment in rats
# Format: in vivo, Male SD rats
# Assay Setup: male, SD; rat plasma, intravenous injection 2 mg/kg
Readout: AUC(0-t) (ng·h/mL)
Please respond with the number in ng·h/mL and leave the unit unwritten.

Please look up its AUC(0-t): CNc1cc2nc3c(cnn13)C(=O)OC(C)COCc1ccc(OC)c(c1)N2 (stereo not shown) [Example 2]
2020

###

# Measurement Protocol: Blood-brain penetration test in rats
# Type: in vivo, Male SD rats
# Assay Setup: male, SD, rat, brain, 0.5 h after oral administration (PO, 10 mg/kg), read-out: concentration in brain tissue
Readout: concentration at 0.5 h
Give me the value, and tack the unit on after it.

Find the recorded concentration at 0.5 h belonging to CNc1cc2nc3c(cnn13)C(=O)OC(C)COCc1ccc(OC)c(c1)N2 (stereo not shown) [Example 2] and report it.
2620 ng/mL

###

# Measurement Protocol: Blood-brain penetration test in rats
# Assay type: in vivo, Male SD rats
# Assay Setup: male, SD, rat, brain/plasma, 10 mg/kg, 0.5 hours post oral dosing, printed as plain ratio, read-out: brain-blood concentration ratio
Readout: Kp at 0.5 h
Response field accepts a number only; no unit should be typed.

// returns reported Kp at 0.5 h for input CNc1cc2nc3c(cnn13)C(=O)OC(C)COCc1ccc(OC)c(c1)N2 (stereo not shown)
5.08

###

# Target System: TYK2-JH2 (Homo sapiens, UniProt P29597)
# Construct: Enzymatic activity(IC50) assay of compounds against TYK2-JH2 and JAK1-JH2
# Sequence (P29597 589-875 limits assumed): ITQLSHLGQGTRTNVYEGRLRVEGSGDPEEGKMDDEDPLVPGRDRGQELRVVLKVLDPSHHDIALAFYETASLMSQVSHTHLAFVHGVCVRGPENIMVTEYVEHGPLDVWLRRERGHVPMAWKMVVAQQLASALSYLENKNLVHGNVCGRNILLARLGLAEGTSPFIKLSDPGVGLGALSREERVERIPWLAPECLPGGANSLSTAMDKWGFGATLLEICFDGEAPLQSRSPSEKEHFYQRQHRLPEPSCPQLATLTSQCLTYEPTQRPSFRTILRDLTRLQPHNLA
# Measurement Protocol: Enzymatic activity (IC50) assay against TYK2-JH2 (fluorescence polarisation, JH2 probe 1)
Please go through the items and note down their IC50.

Recorded IC50 for CNc1cc2nc3c(cnn13)C(=O)O[C@H](C)COCc1cc(c(=O)n(C)c1)N2 [Example 8] with TYK2-JH2 (Homo sapiens, UniProt P29597), please?
< 5 nM

Lookup: IC50 / TYK2-JH2 (Homo sapiens, UniProt P29597) / CNc1cc2nn3c(cnc13)C(=O)O[C@H](C)COCc1ccc(OC)c(c1)N2 [Example 1]
< 5 nM

Return IC50 measured with TYK2-JH2 (Homo sapiens, UniProt P29597) given this compound: CNc1cc2nn3c(cnc13)C(=O)OC[C@H](C)OCc1ccc(OC)c(c1)N2 [Example 3]
< 20 nM

Param readout= IC50; system= TYK2-JH2 (Homo sapiens, UniProt P29597); entry= CNc1cc2nn3c(cnc13)C(=O)N[C@@H]1CCC[C@H]1OCc1cc(c3nnn(C)c3c1)N2 [control compound A, reference compound] ; returns value.
< 5 nM

###

# Measurement Protocol: Pharmacokinetic experiment in rats
# Format: in vivo, Male SD rats
# Assay Setup: male, SD; rat plasma, intravenous injection 2 mg/kg
# Experimental: Male SD rats were divided into groups of three animals each, which were administered the compound of Example 2 by intravenous injection (2 mg/kg), administered the compound of Example 2 by single oral gavage (10 mg/kg), and administered a control compound by single oral gavage (10 mg/kg), respectively. […] Plasma samples were processed by protein precipitation extraction, and the extracts were analyzed by LC/MS/MS. […]
Readout: C0 (ng/mL)
Provide the reading as a plain figure in ng/mL.

For CNc1cc2nc3c(cnn13)C(=O)OC(C)COCc1ccc(OC)c(c1)N2 (stereo not shown) [Example 2] , what is its reported C0?
2260

###

# Measurement Protocol: Blood-brain penetration test in rats
# Format: in vivo, Male SD rats
# Assay Setup: male, SD, rat, plasma, 0.5 h after oral administration (PO, 10 mg/kg), read-out: concentration in plamsa
Readout: concentration at 0.5 h (ng/mL)
State just the number; it will be interpreted in ng/mL.

Endpoint output: concentration at 0.5 h of CNc1cc2nc3c(cnn13)C(=O)OC(C)COCc1ccc(OC)c(c1)N2 (stereo not shown) . Value?
515

###

# Measurement Protocol: Blood-brain penetration test in rats
# Format: in vivo, Male SD rats
# Assay Setup: male, SD, rat, brain/plasma, PO 10 mg/kg, 0.5 hours after administration, read-out: brain/blood concentration ratio
Readout: Kp at 0.5 h
Answer as a number with no unit attached.

Recorded Kp at 0.5 h for [2H]C([2H])([2H])NC(=O)c1nnc(NC(=O)C2CC2)cc1Nc1cccc(-c2ncn(C)n2)c1OC [Deucravacitinib, reference compound] , please?
0.032

###

# Measurement Protocol: Pharmacokinetic experiment in rats
# Assay type: in vivo, Male SD rats
# Assay Setup: male, SD; rat plasma, intravenous injection 2 mg/kg
Readout: MRT (h)
State the answer as a number, implicitly in h.

For the molecule CNc1cc2nc3c(cnn13)C(=O)OC(C)COCc1ccc(OC)c(c1)N2 (stereo not shown) [Example 2] , what MRT is on record?
1.28

###

# Measurement Protocol: Pharmacokinetic experiment in rats
# Format: in vivo, Male SD rats
# Assay Setup: male, SD, rat, plasma, iv, 2 mg/kg, rat plasma, intravenous injection 2 mg/kg; read-out: Vz
Readout: Vd (L/kg)
Give the value in L/kg but do not write L/kg after it.

Any idea what its Vd is? The molecule is CNc1cc2nc3c(cnn13)C(=O)OC(C)COCc1ccc(OC)c(c1)N2 (stereo not shown)
1.33

###

Kindly state pIC50 for each of the entries shown.
# Target System: TYK2-JH2 (Homo sapiens)
# Construct: Enzymatic activity(IC50) assay of compounds against TYK2-JH2 and JAK1-JH2
# Measurement Protocol: Enzymatic activity (IC50) assay against TYK2-JH2 (fluorescence polarisation, JH2 probe 1)
pIC50: −log10 of the molar value.

Any idea what its pIC50 is? The compound is CNc1cc2nn3c(cnc13)C(=O)O[C@H](C)COCc1cc(c(=O)n(C)c1)N2 [Example 7]
> 8.30

# query: pIC50 of entry CNc1cc2nn3c(cnc13)C(=O)O[C@@H]1CCC[C@@H]1OCc1cc(c3nnn(C)c3c1)N2 [Example 5]
> 8.30

# pIC50 lookup, item CNc1cc2nc3c(cnn13)C(=O)OCC(C)OCc1ccc(OC)c(c1)N2 (centres unmarked) [Example 4]
> 7.70

Looking for the measured pIC50 of CNc1cc2nc3c(cnn13)C(=O)OC(C)COCc1ccc(OC)c(c1)N2 (centres unmarked) [Example 2] , can you help?
> 8.30

Request the reported pIC50 associated with CNc1cc2nc3c(cnn13)C(=O)O[C@@H]1CCC[C@H]1OCc1cc(c3nnn(C)c3c1)N2 [Example 6]
> 8.00

###

# Measurement Protocol: Blood-brain penetration test in rats
# Assay type: in vivo, Male SD rats
# Assay Setup: male, SD, rat, brain/plasma, IV 2 mg/kg, 5 min after administration, read-out: brain/blood concentration ratio
Provide the reported Kp at 5 min of each item.
// keep it numeric: no unit symbol after the value

Need Kp at 5 min of CNc1cc2nc3c(cnn13)C(=O)N[C@H](C)COCc1ccc(OC)c(c1)N2 [control compound B, reference compound] , thanks.
0.228

What value of Kp at 5 min has been reported for the following molecule? CNc1cc2nn3c(cnc13)C(=O)N[C@@H]1CCC[C@H]1OCc1cc(c3nnn(C)c3c1)N2 [control compound A, reference compound]
0.0879

Kp at 5 min for CNc1cc2nc3c(cnn13)C(=O)O[C@@H]1CCC[C@H]1OCc1cc(c3nnn(C)c3c1)N2 ?
0.322

Please report the recorded Kp at 5 min for CNc1cc2nn3c(cnc13)C(=O)O[C@@H]1CCC[C@@H]1OCc1cc(c3nnn(C)c3c1)N2 .
1.21

Fill in: Kp at 5 min of CNc1cc2nn3c(cnc13)C(=O)O[C@H](C)COCc1ccc(OC)c(c1)N2 is ___
3.15
